Reference for the values: patent US11459315B2

// values below are reported pIC50
STUDY_TARGET: PRC2 containing wt EZH2 (Homo sapiens (Human), UniProt Q15910)
Sequence (Q15910 whole entry): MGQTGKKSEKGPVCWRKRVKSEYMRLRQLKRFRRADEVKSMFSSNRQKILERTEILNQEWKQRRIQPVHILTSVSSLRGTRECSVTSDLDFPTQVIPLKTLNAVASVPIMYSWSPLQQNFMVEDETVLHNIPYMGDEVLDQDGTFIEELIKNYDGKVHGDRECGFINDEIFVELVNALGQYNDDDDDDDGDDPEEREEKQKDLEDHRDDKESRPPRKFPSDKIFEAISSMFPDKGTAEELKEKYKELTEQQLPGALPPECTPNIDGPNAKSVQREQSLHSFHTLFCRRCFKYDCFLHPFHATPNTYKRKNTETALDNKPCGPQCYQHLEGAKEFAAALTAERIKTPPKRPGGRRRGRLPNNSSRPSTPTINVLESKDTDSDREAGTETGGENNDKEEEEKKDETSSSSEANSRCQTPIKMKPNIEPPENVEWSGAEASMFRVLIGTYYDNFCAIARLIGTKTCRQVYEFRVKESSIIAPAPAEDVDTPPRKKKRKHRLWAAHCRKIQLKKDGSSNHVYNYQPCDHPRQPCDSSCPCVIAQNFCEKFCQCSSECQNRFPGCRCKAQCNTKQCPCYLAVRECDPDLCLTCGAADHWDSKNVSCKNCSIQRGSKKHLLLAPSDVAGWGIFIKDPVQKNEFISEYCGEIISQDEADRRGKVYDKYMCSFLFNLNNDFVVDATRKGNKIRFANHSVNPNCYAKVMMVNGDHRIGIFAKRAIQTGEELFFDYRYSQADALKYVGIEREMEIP
Sequence (O75530 whole entry partner): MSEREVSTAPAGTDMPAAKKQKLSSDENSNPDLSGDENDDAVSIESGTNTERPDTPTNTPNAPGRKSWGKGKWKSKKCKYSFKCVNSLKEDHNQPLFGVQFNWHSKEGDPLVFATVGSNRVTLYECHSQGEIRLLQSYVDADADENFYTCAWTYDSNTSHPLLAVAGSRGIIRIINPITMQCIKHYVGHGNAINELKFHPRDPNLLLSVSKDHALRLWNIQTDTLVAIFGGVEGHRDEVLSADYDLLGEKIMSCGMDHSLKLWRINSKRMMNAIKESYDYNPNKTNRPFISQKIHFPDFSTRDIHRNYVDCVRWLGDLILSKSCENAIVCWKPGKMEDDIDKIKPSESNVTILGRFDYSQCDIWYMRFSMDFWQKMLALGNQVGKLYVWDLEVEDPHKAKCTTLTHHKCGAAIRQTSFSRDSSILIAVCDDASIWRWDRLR
Sequence (Q15022 whole entry partner): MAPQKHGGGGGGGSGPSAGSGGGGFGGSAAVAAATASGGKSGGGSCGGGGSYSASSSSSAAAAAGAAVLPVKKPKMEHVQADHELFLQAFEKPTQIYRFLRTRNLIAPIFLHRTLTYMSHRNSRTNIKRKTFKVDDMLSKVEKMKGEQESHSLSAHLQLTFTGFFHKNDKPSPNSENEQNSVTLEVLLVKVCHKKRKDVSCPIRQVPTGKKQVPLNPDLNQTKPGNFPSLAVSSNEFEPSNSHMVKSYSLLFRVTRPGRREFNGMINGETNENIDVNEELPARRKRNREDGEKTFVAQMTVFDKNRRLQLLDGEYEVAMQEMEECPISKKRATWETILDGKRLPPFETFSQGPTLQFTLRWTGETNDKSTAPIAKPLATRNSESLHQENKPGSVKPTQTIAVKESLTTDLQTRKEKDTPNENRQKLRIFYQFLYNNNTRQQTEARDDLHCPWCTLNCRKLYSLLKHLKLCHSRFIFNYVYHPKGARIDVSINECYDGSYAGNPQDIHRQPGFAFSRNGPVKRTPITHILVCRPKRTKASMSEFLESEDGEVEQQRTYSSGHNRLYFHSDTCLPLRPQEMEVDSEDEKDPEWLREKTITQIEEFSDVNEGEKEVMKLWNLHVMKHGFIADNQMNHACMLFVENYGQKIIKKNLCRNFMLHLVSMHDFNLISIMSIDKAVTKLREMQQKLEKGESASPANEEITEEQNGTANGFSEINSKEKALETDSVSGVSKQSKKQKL
Sequence (Q09028 whole entry partner): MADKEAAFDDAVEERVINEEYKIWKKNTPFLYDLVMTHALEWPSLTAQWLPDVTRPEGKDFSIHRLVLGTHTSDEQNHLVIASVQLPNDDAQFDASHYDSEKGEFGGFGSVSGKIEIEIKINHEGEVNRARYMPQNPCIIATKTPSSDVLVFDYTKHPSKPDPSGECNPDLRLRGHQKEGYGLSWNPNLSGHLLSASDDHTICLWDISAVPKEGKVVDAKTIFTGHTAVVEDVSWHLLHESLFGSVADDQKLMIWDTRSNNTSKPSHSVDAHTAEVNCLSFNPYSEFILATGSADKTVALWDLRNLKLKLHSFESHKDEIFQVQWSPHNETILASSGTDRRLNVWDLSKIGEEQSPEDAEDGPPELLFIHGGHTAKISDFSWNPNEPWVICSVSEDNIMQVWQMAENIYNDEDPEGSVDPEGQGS
Sequence (Q6ZN18 whole entry partner): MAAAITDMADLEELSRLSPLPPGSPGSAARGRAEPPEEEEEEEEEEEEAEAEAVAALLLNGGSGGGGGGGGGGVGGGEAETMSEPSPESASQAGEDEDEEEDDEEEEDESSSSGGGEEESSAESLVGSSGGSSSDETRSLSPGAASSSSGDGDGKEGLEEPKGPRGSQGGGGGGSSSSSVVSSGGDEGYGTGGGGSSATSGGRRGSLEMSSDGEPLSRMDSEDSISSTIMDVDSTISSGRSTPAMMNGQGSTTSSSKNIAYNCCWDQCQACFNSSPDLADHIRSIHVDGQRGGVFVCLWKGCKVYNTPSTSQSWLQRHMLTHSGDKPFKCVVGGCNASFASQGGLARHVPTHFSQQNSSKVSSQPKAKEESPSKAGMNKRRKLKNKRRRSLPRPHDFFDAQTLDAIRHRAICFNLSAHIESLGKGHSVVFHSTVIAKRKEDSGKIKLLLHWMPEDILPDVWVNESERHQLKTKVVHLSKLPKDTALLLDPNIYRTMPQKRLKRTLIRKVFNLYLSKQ
RUN_DESCRIPTION: EZH2 biochemical assay (IC50), 3H-SAM incorporation into biotinylated H3 peptide
CONDITION_DESCRIPTION: EZH2 (IC50), 30 pM PRC2 containing wt EZH2; 3-5 h pre-incubation
pIC50: −log10 of the molar value.

- COMPOUND: "CSc1cc(C)[nH]c(=O)c1CNC(=O)c1c(C)n([C@H](C)[C@@H]2CCN(C3CC3)CC2(F)F)c2ncccc12 (single isomer, unassigned) [70 (isomer 2)]"
  pIC50: "8.30 to 9.30"
- COMPOUND: "CSc1cc(C)[nH]c(=O)c1CNC(=O)c1c(C)n([C@H](C)C2CCN(CCC(F)(F)F)CC2)c2ccccc12"
  pIC50: "> 9.30"
- COMPOUND: "CSc1cc(C)[nH]c(=O)c1CNC(=O)c1c(C)n([C@H](C)C2CCC(N3CC[C@@H](F)C3)CC2)c2ccccc12 (single isomer, unassigned) [79 (isomer 1)]"
  pIC50: "> 9.30"

---

Test system: H3K27me3 mark in HeLa cells (EZH2)
RUN_DESCRIPTION: H3K27me3 Alpha Hela Assay (AlphaLISA)
Format: cell-based
CONDITION_DESCRIPTION: HeLa cells, 72 hrs; read-out: EZH2 Cell H3K27me3 Alpha HeLa (EC50 K27me3)
pEC50: −log10 of the molar value.
EXPERIMENTAL_READOUT: pEC50

- COMPOUND: "CSc1cc(C)[nH]c(=O)c1CNC(=O)c1c(C)n([C@H](C)C2OCC(NC3(C)COC3)CO2)c2ccccc12 (single isomer, unassigned) [6 (isomer 2)]"
  EXPERIMENTAL_READOUT: "pEC50"
  MEASURED_RESULT: "< 7.00"
- COMPOUND: "CSc1cc(C)[nH]c(=O)c1CNC(=O)c1c(C)n([C@H](C)C2CCC(C)(O)CC2)c2ccccc12 (single isomer, unassigned) [22 (isomer 2)]"
  EXPERIMENTAL_READOUT: "pEC50"
  MEASURED_RESULT: "> 8.00"
- COMPOUND: "COC1CN(C2CCC([C@@H](C)n3c(C)c(C(=O)NCc4c(SC)cc(C)[nH]c4=O)c4cc(F)cnc43)CC2)C1 (single isomer, unassigned) [94 (isomer 2)]"
  EXPERIMENTAL_READOUT: "pEC50"
  MEASURED_RESULT: "< 7.00"
- COMPOUND: "COC1CN(C2CCC([C@@H](C)n3c(C)c(C(=O)NCc4c(SC)cc(C)[nH]c4=O)c4cccnc43)CC2)C1 (single isomer, unassigned) [76 (isomer 1)]"
  EXPERIMENTAL_READOUT: "pEC50"
  MEASURED_RESULT: "> 8.00"
- COMPOUND: "CSc1cc(C)[nH]c(=O)c1CNC(=O)c1c(C)n([C@H](C)C2CCC(NC3(C)CCOC3)CC2)c2ccccc12 (single isomer, unassigned) [149 (isomer 2)]"
  EXPERIMENTAL_READOUT: "pEC50"
  MEASURED_RESULT: "7.00 to 8.00"

---

STUDY_TARGET: PRC2 containing wt EZH2 (Homo sapiens (Human), UniProt Q15910)
RUN_DESCRIPTION: EZH2 biochemical assay (IC50), 3H-SAM incorporation into biotinylated H3 peptide
CONDITION_DESCRIPTION: EZH2 (IC50), 30 pM PRC2 containing wt EZH2; 3-5 h pre-incubation
EXPERIMENTAL_READOUT: IC50

- MOLECULE: "COCCOC1CCC([C@@H](C)n2c(C)c(C(=O)NCc3c(SC)cc(C)[nH]c3=O)c3ccccc32)CC1 (single isomer, unassigned) [67 (isomer 2)]"
  STUDY_TARGET: "PRC2 containing wt EZH2 (Homo sapiens (Human), UniProt Q15910)"
  EXPERIMENTAL_READOUT: "IC50"
  MEASURED_RESULT: "< 0.5 nM"
- MOLECULE: "CSc1cc(C)[nH]c(=O)c1CNC(=O)c1c(C)n([C@H](C)C2CCN(C3CC3)CC2)c2ncncc12"
  STUDY_TARGET: "PRC2 containing wt EZH2 (Homo sapiens (Human), UniProt Q15910)"
  EXPERIMENTAL_READOUT: "IC50"
  MEASURED_RESULT: "< 0.5 nM"
- MOLECULE: "CSc1cc(C)[nH]c(=O)c1CNC(=O)c1c(C)n([C@H](C)C2CCC(N3CC(F)C3)CC2)c2ncc(Cl)cc12 (stereo partly shown)"
  STUDY_TARGET: "PRC2 containing wt EZH2 (Homo sapiens (Human), UniProt Q15910)"
  EXPERIMENTAL_READOUT: "IC50"
  MEASURED_RESULT: "< 0.5 nM"
- MOLECULE: "CSc1cc(C)[nH]c(=O)c1CNC(=O)c1c(C)n([C@H](C)C2CCC(N3CC(C)(F)C3)CC2)c2ncccc12 (stereo partly shown)"
  STUDY_TARGET: "PRC2 containing wt EZH2 (Homo sapiens (Human), UniProt Q15910)"
  EXPERIMENTAL_READOUT: "IC50"
  MEASURED_RESULT: "< 0.5 nM"
- MOLECULE: "CSc1cc(C)[nH]c(=O)c1CNC(=O)c1c(C)n([C@H](C)C2CCN(CC(F)(F)F)CC2)c2ncncc12"
  STUDY_TARGET: "PRC2 containing wt EZH2 (Homo sapiens (Human), UniProt Q15910)"
  EXPERIMENTAL_READOUT: "IC50"
  MEASURED_RESULT: "< 0.5 nM"
- MOLECULE: "CSc1cc(C)[nH]c(=O)c1CNC(=O)c1c(C)n([C@H](C)[C@H]2CCNC[C@@H]2F)c2ccccc12"
  STUDY_TARGET: "PRC2 containing wt EZH2 (Homo sapiens (Human), UniProt Q15910)"
  EXPERIMENTAL_READOUT: "IC50"
  MEASURED_RESULT: "< 0.5 nM"
- MOLECULE: "CCSc1cc(C)[nH]c(=O)c1CNC(=O)c1c(C)n([C@H](C)C2CCN(CC(F)(F)F)CC2)c2ccccc12"
  STUDY_TARGET: "PRC2 containing wt EZH2 (Homo sapiens (Human), UniProt Q15910)"
  EXPERIMENTAL_READOUT: "IC50"
  MEASURED_RESULT: "0.5 to 5 nM"
- MOLECULE: "CSc1cc(C)[nH]c(=O)c1CNC(=O)c1c(C)n([C@@H](C)c2ccc(N(C)C)cc2)c2ccccc12"
  STUDY_TARGET: "PRC2 containing wt EZH2 (Homo sapiens (Human), UniProt Q15910)"
  EXPERIMENTAL_READOUT: "IC50"
  MEASURED_RESULT: "0.5 to 5 nM"
- MOLECULE: "COC1CN(C2CCC([C@@H](C)n3c(C)c(C(=O)NCc4c(SC)cc(C)[nH]c4=O)c4cccnc43)CC2)C1 (single isomer, unassigned) [76 (isomer 1)]"
  STUDY_TARGET: "PRC2 containing wt EZH2 (Homo sapiens (Human), UniProt Q15910)"
  EXPERIMENTAL_READOUT: "IC50"
  MEASURED_RESULT: "< 0.5 nM"
- MOLECULE: "CSc1cc(C)[nH]c(=O)c1CNC(=O)c1c(C)n([C@H](C)C2CCN(C3CC(F)C3)CC2)c2ncccc12 (stereo partly shown)"
  STUDY_TARGET: "PRC2 containing wt EZH2 (Homo sapiens (Human), UniProt Q15910)"
  EXPERIMENTAL_READOUT: "IC50"
  MEASURED_RESULT: "< 0.5 nM"
- MOLECULE: "CSc1cc(C)[nH]c(=O)c1CNC(=O)c1c(C)n([C@H](C)C2OCC(N3CC(F)(F)C3)CO2)c2ccccc12 (single isomer, unassigned) [85 (isomer 1)]"
  STUDY_TARGET: "PRC2 containing wt EZH2 (Homo sapiens (Human), UniProt Q15910)"
  EXPERIMENTAL_READOUT: "IC50"
  MEASURED_RESULT: "< 0.5 nM"
- MOLECULE: "CSc1cc(C)[nH]c(=O)c1CNC(=O)c1c(C)n([C@H](C)C2CCN(C3CC(F)(F)C3)CC2)c2ccccc12"
  STUDY_TARGET: "PRC2 containing wt EZH2 (Homo sapiens (Human), UniProt Q15910)"
  EXPERIMENTAL_READOUT: "IC50"
  MEASURED_RESULT: "< 0.5 nM"
- MOLECULE: "CSc1cc(C)[nH]c(=O)c1CNC(=O)c1c(C)n([C@@H](C)C2COC2)c2ccccc12 (single isomer, unassigned) [14 (isomer 2)]"
  STUDY_TARGET: "PRC2 containing wt EZH2 (Homo sapiens (Human), UniProt Q15910)"
  EXPERIMENTAL_READOUT: "IC50"
  MEASURED_RESULT: "> 5 nM"
